A collection of compounds and their measured pIC50
study-target: COX-1 (Ovis aries)
Construct: purchased Cayman Chemical Co. 560131
Sequence (P05979 25-600): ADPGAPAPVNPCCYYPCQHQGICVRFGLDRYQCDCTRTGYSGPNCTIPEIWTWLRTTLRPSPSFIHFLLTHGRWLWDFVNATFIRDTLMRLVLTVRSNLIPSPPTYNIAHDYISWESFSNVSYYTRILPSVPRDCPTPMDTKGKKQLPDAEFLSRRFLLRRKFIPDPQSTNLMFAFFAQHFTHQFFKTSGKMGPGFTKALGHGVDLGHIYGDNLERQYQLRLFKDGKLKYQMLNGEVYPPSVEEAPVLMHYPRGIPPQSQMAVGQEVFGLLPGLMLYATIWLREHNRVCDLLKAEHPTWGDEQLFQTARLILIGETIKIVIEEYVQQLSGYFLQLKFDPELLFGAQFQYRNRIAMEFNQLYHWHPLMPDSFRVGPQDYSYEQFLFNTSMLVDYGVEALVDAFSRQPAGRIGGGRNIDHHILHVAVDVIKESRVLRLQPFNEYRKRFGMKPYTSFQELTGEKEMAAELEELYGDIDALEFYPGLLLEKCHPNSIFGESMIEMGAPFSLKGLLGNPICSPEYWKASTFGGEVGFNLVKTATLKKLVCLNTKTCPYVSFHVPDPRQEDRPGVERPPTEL
test-method-notes: COX-1 enzyme immunoassay (Cayman inhibitor screening kit)
Assay type: biochemical
test-settings: enzyme immunoassay, average of three experiments; read-out: IC50 COX-1
pIC50: −log10 of the molar value.
result-type: pIC50

# compound, study-target, limit-operator, test-result
measured = [
    ("CC1=NN(c2cccc(Cl)c2)C(=O)C1=Cc1cn(CCCn2c3ccccc3c(=O)c3ccccc32)c2ccccc12", "COX-1 (Ovis aries)", "<", 5.00),
    ("O=C1Nc2ccccc2C1=Cc1cn(CCCn2c3ccccc3c(=O)c3ccccc32)c2ccccc12", "COX-1 (Ovis aries)", "=", 5.40),
    ("O=C1C(=Cc2cn(C[C@H](O)Cn3c4ccccc4c(=O)c4ccccc43)c3ccccc23)c2ccccc2N1c1c(Cl)cccc1Cl [(S)-3d]", "COX-1 (Ovis aries)", "=", 4.22),
    ("O=C1C(=Cc2cn(C[C@@H](O)Cn3c4ccccc4c(=O)c4ccccc43)c3ccccc23)c2ccccc2N1c1c(Cl)cccc1Cl [(R)-3d]", "COX-1 (Ovis aries)", "<", 5.00),
    ("O=C1Nc2ccccc2C1=Cc1cn(C[C@@H](O)Cn2c3ccccc3c(=O)c3ccccc32)c2ccccc12 [(R)-3c]", "COX-1 (Ovis aries)", "=", 5.10),
    ("O=C1Nc2ccccc2C1=Cc1cn(CCCCn2c3ccccc3c(=O)c3ccccc32)c2ccccc12", "COX-1 (Ovis aries)", "=", 5.40),
    ("O=C1Nc2ccccc2C1=Cc1cn(C[C@H](O)Cn2c3ccccc3c(=O)c3ccccc32)c2ccccc12 [(S)-3c]", "COX-1 (Ovis aries)", "=", 4.22),
]

Origin of the recorded values: paper PMC6030096
